target: RecQ-like DNA helicase BLM (Homo sapiens) (UniProt P54132); test: qHTS Validation Assay for Inhibitors of Bloom's syndrome helicase (BLM) (AID 2364); details: BLM helicase DNA unwinding, fluorescence, in vitro; series mostly up to 57.1 µM;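 further: plate controls were DMSO vehicle for no effect and enzyme-free control for full effect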
Sequence (P54132 whole entry, looked up): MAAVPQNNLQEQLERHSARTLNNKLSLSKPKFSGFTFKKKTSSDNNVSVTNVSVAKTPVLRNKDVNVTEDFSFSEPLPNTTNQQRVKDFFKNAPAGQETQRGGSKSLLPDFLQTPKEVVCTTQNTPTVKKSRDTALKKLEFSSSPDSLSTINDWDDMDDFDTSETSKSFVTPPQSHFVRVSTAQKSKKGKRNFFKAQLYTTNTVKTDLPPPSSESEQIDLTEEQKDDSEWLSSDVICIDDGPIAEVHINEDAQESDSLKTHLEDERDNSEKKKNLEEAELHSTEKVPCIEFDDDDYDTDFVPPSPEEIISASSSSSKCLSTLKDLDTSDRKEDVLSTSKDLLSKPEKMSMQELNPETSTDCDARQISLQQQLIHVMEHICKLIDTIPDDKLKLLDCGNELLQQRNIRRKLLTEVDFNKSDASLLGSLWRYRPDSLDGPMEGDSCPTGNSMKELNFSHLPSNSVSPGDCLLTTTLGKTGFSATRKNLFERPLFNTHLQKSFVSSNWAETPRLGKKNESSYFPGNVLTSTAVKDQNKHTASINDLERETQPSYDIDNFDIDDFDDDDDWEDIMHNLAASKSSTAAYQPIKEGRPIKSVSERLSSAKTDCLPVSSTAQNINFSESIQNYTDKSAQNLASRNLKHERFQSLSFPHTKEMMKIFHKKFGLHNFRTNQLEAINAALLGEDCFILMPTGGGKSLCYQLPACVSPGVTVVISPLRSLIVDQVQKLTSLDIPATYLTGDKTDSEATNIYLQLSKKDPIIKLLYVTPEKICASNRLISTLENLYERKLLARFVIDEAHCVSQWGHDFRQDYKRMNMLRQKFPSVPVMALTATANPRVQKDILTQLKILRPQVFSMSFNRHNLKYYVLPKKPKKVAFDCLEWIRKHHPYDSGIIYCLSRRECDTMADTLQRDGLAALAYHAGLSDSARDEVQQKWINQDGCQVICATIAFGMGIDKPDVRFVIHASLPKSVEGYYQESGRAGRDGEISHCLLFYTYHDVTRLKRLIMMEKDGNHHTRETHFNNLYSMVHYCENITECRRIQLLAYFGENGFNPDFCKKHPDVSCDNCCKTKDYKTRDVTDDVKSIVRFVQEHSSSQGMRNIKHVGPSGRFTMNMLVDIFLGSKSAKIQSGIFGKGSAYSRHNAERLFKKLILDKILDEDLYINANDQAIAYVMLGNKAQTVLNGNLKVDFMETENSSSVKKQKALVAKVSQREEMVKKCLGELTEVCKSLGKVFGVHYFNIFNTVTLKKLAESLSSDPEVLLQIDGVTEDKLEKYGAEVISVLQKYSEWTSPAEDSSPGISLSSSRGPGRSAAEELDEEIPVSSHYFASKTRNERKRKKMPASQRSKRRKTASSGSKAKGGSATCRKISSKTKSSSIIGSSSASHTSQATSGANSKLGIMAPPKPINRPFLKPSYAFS
Inconclusive results are not listed. Active and inactive are the calls of the source. The call rests on the fitted dose curve; in most records, active means well fitted inhibition curve with a large enough effect; inconclusive means small, poorly fitted or top-dose-only effect; inactive means no such curve, though single readings can be large or run the other way.
measured_quantity: outcome

Some entries whose results are on file:
{"compound": "CC(CCc1ccccc1)NCC(O)c1ccc(O)c(C(N)=O)c1 (stereo not given)", "result": "inactive"}
{"compound": "CC(C)COC(=O)OCN1C(=O)CN(CCN2CC(=O)N(COC(=O)OCC(C)C)C(=O)C2)CC1=O", "result": "inactive"}
{"compound": "CC(C)NC[C@@H](O)COc1cccc2ccccc12", "result": "inactive"}
{"compound": "O=C1CCC(c2ccc(-n3ccnc3)cc2)=NN1", "result": "inactive"}

# next compound below
The value of outcome measured for the compound CNCCC=C1c2ccccc2CCc2ccccc21 turned out to be inactive

###

test system: TAB113; assay: qHTS profiling for inhibitors of Plasmodium falciparum proliferation (AID 504749); further: nearly all actives have a fitted effect of over 60% in size; conditions: P. falciparum in erythrocytes, SYBR Green DNA, 72 h; series mostly up to 28.7 µM
Records with an inconclusive call do not appear. Calls of active or inactive are those of the source. Calls come from the whole dose curve; as a rule, active = well fitted inhibition curve with a large enough effect; inconclusive = small, poorly fitted or top-dose-only effect; inactive = flat fitted curve, though single readings scatter.
Lab note: assign the record to one of True (active), False (inactive)

{"molecule": "CCCCOc1ccc(OCCCN2CCOCC2)cc1", "class_label": "False"}
{"molecule": "CCN1CCN(c2cc3c(cc2F)c(=O)c(C(=O)O)cn3C2CC2)CC1", "class_label": "False"}
{"molecule": "N[C@H](Cc1c[nH]c2ccccc12)C(=O)O", "class_label": "False"}
{"molecule": "CN(C)CCCOc1nn(Cc2ccccc2)c2ccccc12", "class_label": "False"}
{"molecule": "CC(C)COC(=O)OCN1C(=O)CN(CCN2CC(=O)N(COC(=O)OCC(C)C)C(=O)C2)CC1=O", "class_label": "False"}
{"molecule": "CC(=O)Oc1ccc(C(=C2CCCCC2)c2ccc(OC(C)=O)cc2)cc1", "class_label": "False"}
{"molecule": "Nc1cc(Cl)c(NC2=NCCN2)c(Cl)c1", "class_label": "False"}
{"molecule": "O=C(O)CNC(=O)c1ccccc1", "class_label": "False"}

[ask] Which result was noted for this molecule in the test: CC(=O)Oc1ccc(C(c2ccc(OC(C)=O)cc2)c2ccccn2)cc1
[reply] False

[ask] Which result was noted for this molecule in the test: NCCc1ccn[nH]1
[reply] False

[ask] Which result was noted for this molecule in the test: CC(Cc1cccc(C(F)(F)F)c1)NCCOC(=O)c1ccccc1 (centres undefined)
[reply] False

###

// reported max response for each item listed
assay: Cell Viability qHTS for small molecule stabilizers of the endoplasmic reticulum resident proteome (AID 1508629); settings: cell viability counter-screen, 100 nM thapsigargin for final 4 h;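 further: human SH-SY5Y neuroblastoma cells carrying the GLuc-SERCaMP reporter; compound exposure about 46 h in total before the viability read; on the % scale 0 is the no-effect control and ±100 the full control effect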
Inconclusive results are not listed.
The response must be a number in % with no trailing unit.

Some entries whose results are on file:
{"compound": "Nc1nc2ncc(CNc3ccc(C(=O)N[C@@H](CCC(=O)O)C(=O)O)cc3)nc2c(=O)[nH]1", "max response (%)": 22.5}
{"compound": "CC1=C(C(=O)OC(C)C)C(c2cccc([N+](=O)[O-])c2)C(C(=O)OC2CN(C(c3ccccc3)c3ccccc3)C2)=C(N)N1 (centres undefined)", "max response (%)": -0.744}
{"compound": "Oc1ccc(O)cc1", "max response (%)": -23.4}

# next compound below
The value of max response measured for the compound CN1CCCC(CC2c3ccccc3Sc3ccccc32)C1 (centres undefined) turned out to be -16.7

###

test system: AA1029; experiment: qHTS profiling for inhibitors of Plasmodium falciparum proliferation (AID 504749); further: nearly all actives have a fitted effect of over 60% in size; conditions: P. falciparum in erythrocytes, SYBR Green DNA, 72 h; series mostly up to 28.7 µM
Inconclusive results are not listed. Activity calls are given as the source filed them. Calls come from the whole dose curve; as a rule, active = well fitted inhibition curve with a large enough effect; inconclusive = small, poorly fitted or top-dose-only effect; inactive = flat fitted curve, though single readings scatter.
Lab note: assign the record to one of active, inactive

Answered examples (4):
{"compound": "COc1cccc2c1C(=O)c1c(O)c3c(c(O)c1C2=O)C[C@@](O)(C(C)=O)C[C@@H]3O[C@H]1C[C@H](N)[C@H](O)[C@H](C)O1", "class_label": "active"}
{"compound": "Nc1cc(Cl)c(NC2=NCCN2)c(Cl)c1", "class_label": "inactive"}
{"compound": "COc1ccc(C2C(=O)c3ccccc3C2=O)cc1", "class_label": "inactive"}
{"compound": "CCCCC1=NC2(CCCC2)C(=O)N1Cc1ccc(-c2ccccc2-c2nn[nH]n2)cc1", "class_label": "inactive"}

[ask] Which result was noted for this compound in the test: C#C[C@]1(O)CC[C@H]2[C@@H]3CCc4cc(OC5CCCC5)ccc4[C@H]3CC[C@@]21C
[reply] inactive

[ask] Which result was noted for this compound in the test: CCCN1CCCC[C@H]1C(=O)Nc1c(C)cccc1C
[reply] inactive

[ask] Which result was noted for this compound in the test: C[C@@H](CN(C)C)CN1c2ccccc2Sc2ccccc21
[reply] inactive

[ask] Which result was noted for this compound in the test: COc1ccc(CN2CCN(C(c3ccc(F)cc3)c3ccc(F)cc3)CC2)c(OC)c1OC
[reply] active

[ask] Which result was noted for this compound in the test: CCOC(=O)n1ccn(C)c1=S
[reply] inactive

[ask] Which result was noted for this compound in the test: COc1cc2c(cc1OC)C(C(C(=O)N(CCc1ccc(OC)c(OC)c1OC)CCc1ccc(OC)c(OC)c1OC)c1ccccc1)=NCC2 (stereo unspecified)
[reply] active

[ask] Which result was noted for this compound in the test: CC(=O)Nc1c(I)cc(I)c(C(=O)O)c1I
[reply] inactive

###

tested on: CP286; experiment: qHTS profiling for inhibitors of Plasmodium falciparum proliferation (AID 504749); further: nearly all actives have a fitted effect of over 60% in size; details: P. falciparum in erythrocytes, SYBR Green DNA, 72 h; series mostly up to 28.7 µM
Records with an inconclusive call do not appear. The source made the active and inactive calls. Calls follow the shape of the dose curve; as a rule, active = well fitted inhibition curve with a large enough effect; inconclusive = small, poorly fitted or top-dose-only effect; inactive = flat fitted curve, though single readings scatter.
Lab note: assign the record to one of active, inactive

Answered examples (5):
{"compound": "Cc1c(C)n(Cc2ccccc2)c2ccc(C(=O)OCCN(C)C)cc12", "class_label": "inactive"}
{"compound": "CCCCCCCCCCCCCCCCCC(=O)OCC(O)CO (configuration not stated)", "class_label": "inactive"}
{"compound": "CCCCOc1cc(C(=O)NCCN(CC)CC)c2ccccc2n1", "class_label": "inactive"}
{"compound": "COc1cc(-c2ccc(=O)[nH]n2)ccc1OC(F)F", "class_label": "inactive"}
{"compound": "CCCCCCCCCCCCCCCCOP(=O)([O-])OCC[N+](C)(C)C", "class_label": "inactive"}

[ask] Which result was noted for this compound in the test: CCCCN1CCCC1C(=O)Nc1c(C)cc(C)cc1C (configuration not stated)
[reply] inactive

[ask] Which result was noted for this compound in the test: O=C(O)CCCCC(=O)O
[reply] inactive

###

Experiment: Cell Viability - SK-N-SH (AID 435);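 further: compound exposure lasted 40 h at 37 °C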
Conditions: SK-N-SH neuroblastoma cell viability qHTS
Source text: NIH Chemical Genomics Center [NCGC] NIH Molecular Libraries Screening Centers Network [MLSCN] National Institutes of Environmental Health Sciences [NIEHS] National Toxicology Program [NTP] We have developed a 1536-well cell-based assay for quantitative high throughput screening (qHTS) against a number of cell lines to determine in vitro cytotoxicity of small molecules. […] 8. Detection; Luminescence; Viewlux plate reader […]
Records with an inconclusive call do not appear. Active and inactive are the calls of the source. Calls come from the whole dose curve. Numbered stars: 1 amine (or outer) side, 2 acyl side, 3 side chain; on linkers, the order of the positions; unused ones are H or OH. Bridge positions count the residues as written; N and C are the ends. Square brackets hold non-standard residues; d marks the D form. Peptide text beside a SMILES is read from it. I, II: the chains in the order shown. Actinocin(9to1) = Cc1c2oc3c(C)ccc(C(=O)[*:1])c3nc-2c(C(=O)[*:2])c(N)c1=O; NMeV = CN[C@H](C(=O)O)C(C)C; Sar = CNCC(=O)O
Lab note: assign the record to one of active, inactive

Answered examples (2):
{"compound": "C=C(CC)C(=O)c1ccc(OCC(=O)O)c(Cl)c1Cl", "class_label": "active"}
{"compound": "Cc1c2oc3c(C)ccc(C(=O)N[C@@H]4C(=O)N[C@H](C(C)C)C(=O)N5CCC[C@H]5C(=O)N(C)CC(=O)N(C)[C@@H](C(C)C)C(=O)O[C@@H]4C)c3nc-2c(C(=O)N[C@@H]2C(=O)N[C@H](C(C)C)C(=O)N3CCC[C@H]3C(=O)N(C)CC(=O)N(C)[C@@H](C(C)C)C(=O)O[C@@H]2C)c(N)c1=O (I: T[dV]P[Sar][NMeV] / II: T[dV]P[Sar][NMeV]; ester I:1-I:C, II:1-II:C; linker I:N-II:N via Actinocin(9to1))", "class_label": "inactive"}

[ask] Which result was noted for this compound in the test: O=c1ccc2ccccc2o1
[reply] inactive

[ask] Which result was noted for this compound in the test: COc1cccc2c1C(=O)c1c(O)c3c(c(O)c1C2=O)C[C@@](O)(C(C)=O)C[C@@H]3O[C@H]1C[C@H](N)[C@H](O)[C@H](C)O1
[reply] active

[ask] Which result was noted for this compound in the test: Nc1ccc(C(=O)O)cc1
[reply] inactive

[ask] Which result was noted for this compound in the test: CCCCCCc1ccc(O)cc1O
[reply] inactive

[ask] Which result was noted for this compound in the test: NC(=NCCCCCCN=C(N)/N=C(\N)Nc1ccc(Cl)cc1)/N=C(\N)Nc1ccc(Cl)cc1
[reply] active
